Source listed as PubChem BioAssay AID527.

# EXPERIMENTAL_DETAILS: S. aureus quorum sensing inhibitors, primary screen, RNAIII-GFP reporter, flow cytometry (AID 527);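 note: 0% = AIP-stimulated control and 100% = unstimulated bacteria without AIP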
# DETAILS: S. aureus RN6390 RNAIII-GFP reporter, AIP-induced, flow cytometry 3 h; measured here: inhibition of GFP MFI; at 2 µM; stronger effect = higher value
The whole screen tested about 24,000 compounds, of which about 65 (0.3%) were called active. Only a selection was taken, and actives are over-represented in it overall.
PROPERTY: inhibition (%)
Field format: number, assumed %, no unit text.

Asked: Specify measured inhibition for CS(=O)(=O)N(Cc1nc2sc3c(c2c(=O)[nH]1)CCCC3)C1CCCCC1 .
Given back: -0.2

Asked: Consider the molecule Cc1cc(NC(=O)CSc2nnc(-c3ccc(Cl)s3)o2)no1 . State its measured inhibition.
Given back: -26.8

Asked: Identify measured inhibition corresponding to CN(C)/C=C1\C=C(c2ccccc2)OC1=O
Given back: 1.9

Asked: For the molecule O=C(NCc1ccc2c(c1)OCO2)C1CCCN(S(=O)(=O)c2cccs2)C1 (centres undefined) , report inhibition.
Given back: 44.2

Asked: Report measured inhibition; entry is C=CCSc1nc2c(c(=O)[nH]1)C(C(C)C)C(C#N)=C(N)O2 (centres undefined)
Given back: 27.2

Asked: Give recorded inhibition. COc1cc2[nH]c(=S)n(CCN3CCCCC3C)c(=O)c2cc1OC (centres undefined)
Given back: 17.7

Asked: Consider the molecule Cc1onc(-c2ccccc2)c1C(=O)N1CCOCC1 . State its measured inhibition.
Given back: 3.7

Asked: Indicate its recorded inhibition; the molecule in question is CCOc1cc(C(=O)Nc2ncccn2)cc(OCC)c1OCC
Given back: 0.7

Asked: Note down inhibition recorded for COc1ccccc1-c1cc(C(=O)NCCCn2ccnc2)no1
Given back: 11.9

Asked: Tell me measured inhibition for C=CCOc1ccc(/C=N/n2cncn2)cc1OC please.
Given back: -15.3

Asked: Give reported inhibition value for Cc1cccc(C2c3c(n(C)c(=O)n(C)c3=O)N=C3c4ccccc4C(=O)C32)c1 (centres undefined)
Given back: 20.3

Asked: Supply inhibition value. Item: CCc1ccc(N2CC(C(=O)NC3=NCCS3)CC2=O)cc1 (centres undefined)
Given back: -2.9

Asked: Specify measured inhibition for COc1ccc(N2CCN(CCNC(=O)CCN3C(=O)COc4ccccc43)CC2)cc1 .
Given back: 5.4

Asked: Please give the documented inhibition of Cc1cc(C)c2c(n1)nn1c(N3CCOCC3)cc(C)nc21
Given back: 1.4

Asked: State, in one line, measured inhibition of COc1ccc(C(=O)NCc2cn3ccccc3n2)cc1
Given back: -17.4

Asked: Look up and report measured inhibition for this entry: O=C(CC(NS(=O)(=O)c1ccc(Cl)cc1)c1ccco1)NC1CCCC1 (centres undefined)
Given back: 13.1

Asked: Supply reported inhibition belonging to this molecule: CCOc1ccc(NCCC(=O)c2ccc3c(c2)OCO3)cc1
Given back: 10.4

Asked: Identify the reported inhibition for the following entry. CCC(=O)N1CCN=C1SCc1ccc(F)cc1
Given back: 7.4

Asked: Provide inhibition value for the following molecule: CC1CCCN(C(C(=O)Nc2ccc(C(C)C)cc2)c2ccc3c(c2)OCO3)C1 (centres undefined)
Given back: 0.9

Asked: Input Cc1cccc(N2CCN(C(=O)C3CCN(S(=O)(=O)c4cnc[nH]4)CC3)CC2)c1C , output reported inhibition.
Given back: -17

Asked: For the molecule Cc1ccccc1NC(=O)c1ccccc1 , give its reported inhibition.
Given back: -11.3

Asked: Give reported inhibition value for O=C(CN1CCN(C(=O)c2ccco2)CC1)Nc1ccc2c(c1)OCO2
Given back: 18.6

Asked: Identify inhibition associated with the molecule O=C(NC1=NCCS1)[C@H](Cc1ccccc1)N1C(=O)c2ccccc2C1=O
Given back: -7.9

Asked: Answer with reported inhibition of Cc1ccc(CNC(=O)C2CCCN(S(C)(=O)=O)C2)cc1 (centres undefined)
Given back: 10

---

So I've got a bunch of compounds here, and I need their inhibition values.
# EXPERIMENTAL_DETAILS: S. aureus quorum sensing inhibitors, primary screen, RNAIII-GFP reporter, flow cytometry (AID 527);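 note: 0% = AIP-stimulated control and 100% = unstimulated bacteria without AIP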
# DETAILS: S. aureus RN6390 RNAIII-GFP reporter, AIP-induced, flow cytometry 3 h; measured here: inhibition of GFP MFI; at 2 µM; stronger effect = higher value
Hit rate of the full screen: of about 24,000 compounds, about 65 (0.3%) were called active. For the sample, actives were picked, then their nearest neighbours and some compounds at random.
# value in %; strip the unit string

Asked: Output measured inhibition for this item: CCOCCCN1C(=O)CN(C2CCCCC2)C(=O)C1c1ccc(OCC)c(OC)c1 (configuration not stated)
Given back: 4.3

Asked: Identify measured inhibition associated with CS(=O)(=O)NCc1ccc(C(=O)NCc2ccccc2)cc1
Given back: -1.2

Asked: Annotate the compound CCOc1ccc(S(=O)(=O)n2ccnc2)c2ccccc12 with its measured inhibition.
Given back: 12.2

Asked: Hello, please tell me recorded inhibition for this one: Cc1ccc(NC2=NC(c3ccccc3)n3c(nc(C)cc3=O)N2)cc1 (configuration not stated)
Given back: -6.2

Asked: Please supply the value of reported inhibition for the item O=C(c1ccco1)N1CCN(C(=O)c2ccc(COc3ccc(F)cc3)o2)CC1
Given back: 8

Asked: Assign inhibition to the following record: CSC1=NCCN1C(=O)c1ccc(S(=O)(=O)N2CCOCC2)cc1
Given back: -16.9

Asked: Given the compound CCOC(=O)N1CCN(CC(=O)c2c(C)[nH]c3ccccc23)CC1 , write its reported inhibition.
Given back: 7.3

Asked: Let me know recorded inhibition for N#CCCn1cnc2ccccc21 , thanks.
Given back: 38.9

Asked: Check the records and state inhibition for COc1cc(C2C(C#N)=C(N)Oc3n[nH]c(-c4ccccn4)c32)cc(OC)c1OC (configuration not stated)
Given back: 8.1

Asked: Return reported inhibition. Input compound: CC(C)(C)C(=O)CCN1C(=O)C2(OCCO2)c2ccccc21
Given back: -21.9

Asked: Dear colleague, please send me the reported inhibition for CC(C)CCNC(=O)CCNS(=O)(=O)c1ccc(Cl)cc1 when you can.
Given back: 8

Asked: Report inhibition for CCCCC(=O)Nc1cc(C)c2c(=O)oc3ccccc3c2n1
Given back: 69.9

---

# EXPERIMENTAL_DETAILS: S. aureus quorum sensing inhibitors, primary screen, RNAIII-GFP reporter, flow cytometry (AID 527);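 note: 0% = AIP-stimulated control and 100% = unstimulated bacteria without AIP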
# DETAILS: S. aureus RN6390 RNAIII-GFP reporter, AIP-induced, flow cytometry 3 h; at 2 µM; stronger effect = higher value
Among all 24,000 compounds or so, about 65 (0.3%) were called active. Shown is part of a subset that was picked to be rich in actives.
PROPERTY: inhibition (%)
Answer with a number only, understood to be in %.

Asked: Please list inhibition recorded for the molecule COc1cccc(CN2C(=O)CCC2(C)C(=O)NC2CCCCCC2)c1 (stereo not drawn)
Given back: -1.4

Asked: Check the records and state inhibition for CC(C)N1C(=O)C2C(C(=O)NC3CCCCC3)C3C=CC2(O3)C1C(=O)NC1CCCC1 (stereo not drawn)
Given back: -2.6

Asked: Quick one: give measured inhibition for CC1CN(C(=O)c2ccc3c(c2)OCO3)OC(c2ccccc2)O1 (stereo not drawn)
Given back: 6

Asked: Entry Cc1ccc(C(c2sc3nc(C)nn3c2O)N2CCN(c3ccc(F)cc3)CC2)cc1 (stereo not drawn) needs its inhibition filled in; supply it.
Given back: 1.8

Asked: Provide measured inhibition value, entry: COc1ccc(N2CCN(CCNC(=O)CCN3C(=O)COc4ccccc43)CC2)cc1
Given back: -0.3

Asked: Give reported inhibition value for CCCCC(CC)C(=O)Nc1ccc(Cl)cn1 (stereo not drawn)
Given back: 0.6

Asked: Answer with reported inhibition of Cc1c(NC(=O)C(C)OC(=O)c2cc3c4ccccc4n(C)c3s2)c(=O)n(-c2ccccc2)n1C (stereo not drawn)
Given back: 0.6

Asked: Give inhibition for the following molecule: CCCn1c(C(O)c2ccc(OCC)cc2)nc2ccccc21 (stereo not drawn)
Given back: -2.6

---

# EXPERIMENTAL_DETAILS: S. aureus quorum sensing inhibitors, primary screen, RNAIII-GFP reporter, flow cytometry (AID 527);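 note: 0% = AIP-stimulated control and 100% = unstimulated bacteria without AIP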
# DETAILS: S. aureus RN6390 RNAIII-GFP reporter, AIP-induced, flow cytometry 3 h; at 2 µM; stronger effect = higher value
The campaign covered roughly 24,000 compounds. About 65 (0.3%) were called active. The full list was thinned out, with actives kept by preference.
PROPERTY: inhibition (%)
Write down the numeric answer in % and omit the unit.

Asked: Please report the measured inhibition for CCCNC(=O)Nc1ccccc1C(=O)Nc1ccc(OC)cc1
Given back: 1.7

Asked: # return recorded inhibition for entry COc1ccc(NC(=O)CCNC(=O)Cn2ccc3ccccc3c2=O)c(OC)c1
Given back: -1.1

Asked: Read off the recorded inhibition for COc1ccccc1C(=O)N1CCN=C1SCc1cccnc1
Given back: -1.3

Asked: Name the recorded inhibition of the molecule listed here: COC(=O)c1ccc(NC(=O)C(C)N2C(=O)c3ccccc3C2=O)cc1 (configuration not stated)
Given back: -1.2

Asked: Let me know recorded inhibition for COC(=O)c1ccc2c(=O)n(CC3CCCO3)c(=S)[nH]c2c1 (configuration not stated) , thanks.
Given back: -2.1

Asked: Please give the documented inhibition of CCCS(=O)(=O)N1CCCC(C(=O)N2CCN(c3ccccc3)CC2)C1 (configuration not stated)
Given back: -1

Asked: Give a short answer stating reported inhibition for O=C(CN1C(=O)CCS(=O)(=O)c2ccccc21)NCc1ccc(F)cc1 .
Given back: -1.6

Asked: Find the measured inhibition of COc1ccc(NC(=O)c2c(SC)nsc2SC)cc1 and report it.
Given back: 67.4

Asked: Item Cc1onc(-c2ccccc2)c1C(=O)N1CCOCC1 : provide inhibition
Given back: 0

Asked: Identify measured inhibition associated with CCOc1ccc(CNC(=O)C2CCC(=O)N2C2CCCC2)cc1OC (configuration not stated)
Given back: 3.8

Asked: Hello, please tell me recorded inhibition for this one: O=C(Nc1nccs1)C1CCCN1S(=O)(=O)c1cccc2cccnc12 (configuration not stated)
Given back: 10.8

Asked: Provide measured inhibition value, entry: Cc1noc(COc2ccccc2OCC(O)CNC(C)(C)C)n1 (configuration not stated)
Given back: -0.1
